Just for reference, patent US6858210B1 is where these values come from.

- Tested on: human β2GPI-dependent antiphospholipid antibody
- assay.remarks: Micropanning of mutant domain 1 phage, patient antibodies
- Format: binding
- condition.parameters: Table 7A, antibody 6501
assay.metric: μpan score

molecule="B11: phage clone, domain 1 mutant M42K (protein) GRTCPKPDDLPFSTVVPLKTFYEPGEEITYSCKPGYVSRGGKRKFICPLTGLWPINTLKCTPRV" observed_measurement=3
molecule="2B2: phage clone, domain 1 mutant V37E (protein) GRTCPKPDDLPFSTVVPLKTFYEPGEEITYSCKPGYESRGGMRKFICPLTGLWPINTLKCTPRV" observed_measurement=3
molecule="A10: phage clone, domain 1 mutant D8G (protein) GRTCPKPGDLPFSTVVPLKTFYEPGEEITYSCKPGYVSRGGMRKFICPLTGLWPINTLKCTPRV" observed_measurement=2
molecule="2D4: phage clone, domain 1 mutant M42T (protein) GRTCPKPDDLPFSTVVPLKTFYEPGEEITYSCKPGYVSRGGTRKFICPLTGLWPINTLKCTPRV" observed_measurement=2
